- System name: UniProt:Q96RJ0
- Sequence (Q96RJ0 whole entry): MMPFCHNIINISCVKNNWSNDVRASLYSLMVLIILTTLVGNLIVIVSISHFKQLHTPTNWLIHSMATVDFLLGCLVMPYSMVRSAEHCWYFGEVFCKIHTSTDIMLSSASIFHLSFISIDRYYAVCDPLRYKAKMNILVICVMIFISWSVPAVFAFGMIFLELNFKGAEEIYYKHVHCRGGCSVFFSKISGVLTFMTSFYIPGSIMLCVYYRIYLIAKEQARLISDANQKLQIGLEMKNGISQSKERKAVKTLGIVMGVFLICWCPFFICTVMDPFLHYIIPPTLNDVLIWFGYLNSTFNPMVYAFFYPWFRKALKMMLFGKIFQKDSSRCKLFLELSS
- Method: Agonist activity at human trace amine associated receptor 1 expressed in RD-HGA16 CHO-K1 cells coexpressed with Galpha16 protein assessed as internal calcium mobilization by calcium 3 assay
- Format: functional, cell-based
Note to self: EC50 under 3 µM means t, ties and anything higher get f.

These solved cases illustrate the format of a correct answer.
Input line: Quick check: does NCCc1c(Cl)cccc1Cl have EC50 under 3 µM?
Output line: t

Input line: I'd appreciate it if you could check whether CNCCc1ccccc1 has EC50 smaller than 3 µM.
Output line: t

Input line: Would you kindly verify if EC50 of NCCc1ccc(C(F)(F)F)cc1 is strictly less than 3 µM?
Output line: f

Next:
Input line: Given CN(C)CCc1ccccc1F , is recorded EC50 strictly lower than 3 µM?
Output line: t

Input line: Does this molecule meet the criterion EC50 < 3 µM? NCC(c1ccccc1)c1ccccc1
Output line: f

Input line: Hello, I'm reviewing records and need to know if EC50 of NCCc1c(F)cc(O)cc1F is below 3 µM. Could you check?
Output line: t

====

- System name: Trace amine-associated receptor 1 (Homo sapiens)
- Sequence (whole entry): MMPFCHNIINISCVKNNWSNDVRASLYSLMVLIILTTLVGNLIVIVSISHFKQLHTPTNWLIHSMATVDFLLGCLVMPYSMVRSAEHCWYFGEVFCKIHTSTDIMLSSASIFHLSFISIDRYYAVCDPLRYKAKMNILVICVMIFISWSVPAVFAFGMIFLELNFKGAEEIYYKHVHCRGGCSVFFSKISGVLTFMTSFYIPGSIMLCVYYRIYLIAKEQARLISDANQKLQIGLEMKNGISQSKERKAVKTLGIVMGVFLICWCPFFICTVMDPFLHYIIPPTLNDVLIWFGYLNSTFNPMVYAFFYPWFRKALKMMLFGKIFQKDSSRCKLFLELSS
- Method: Agonist activity at human trace amine associated receptor 1 expressed in RD-HGA16 CHO-K1 cells coexpressed with Galpha16 protein assessed as internal calcium mobilization by calcium 3 assay relative to 2-phenylethanamine
- Type: functional, cell-based
Quick reference for Emax among some compounds
Give just the number in %; leave the unit off.

The examples below pair each entry with its known result.
Input line: Please look at this compound and report its Emax: NCCc1ccc(Br)cc1
Output line: 98

Input line: Give Emax for CN(C)CCc1cccc(Cl)c1
Output line: 62

Input line: Report Emax, nothing else, for this compound: NCCc1cccc(Cl)c1Cl
Output line: 84

Input line: Identify the reported Emax for the following entry. NCCc1ccccc1
Output line: 100

Input line: For the compound CN(C)CCc1ccc(Br)cc1 , give its reported Emax.
Output line: 40

Input line: Using the record for CNCCc1ccc(F)cc1 , state its measured Emax.
Output line: 63

Input line: Look up Emax of NCCc1ccc(C(F)(F)F)cc1 and report it.
Output line: 78

Input line: Tell us which Emax value is on record for NCCc1cccc(C(F)(F)F)c1
Output line: 69

Input line: Output Emax of CNCCc1ccc(Cl)cc1
Output line: 67

Input line: Return Emax (reported value) for this compound: CNCCc1ccccc1Br
Output line: 93

***
Input line: Identify Emax associated with the compound CN(C)CCc1cccc(F)c1
Output line: 78

Input line: Provide measured Emax value, entry: NCCc1ccccc1Br
Output line: 89

Input line: Look up and report measured Emax for this entry: C[C@H](N)Cc1ccccc1
Output line: 74

Input line: Input NCCc1cccc(Br)c1 , output reported Emax.
Output line: 75

Input line: Read the entry Cc1cccc(CCN)c1 and write its reported Emax.
Output line: 93

Input line: State its Emax: CCc1ccc(CCN)cc1
Output line: 86

Input line: Query Emax for Cc1ccccc1CCN
Output line: 97

====

- System name: UniProtKB Q96RJ0
- Method: Agonist activity at human trace amine associated receptor 1 expressed in RD-HGA16 CHO-K1 cells coexpressed with Galpha16 protein assessed as internal calcium mobilization by calcium 3 assay relative to 2-phenylethanamine
- Format: functional, cell-based
Classes (Emax): lo (below 70%), mid (70% to below 90%), hi (90% or more)

Would you please look over these solved cases?
Input line: Class? Entry: CNCCc1ccccc1F
Output line: mid

Input line: Which bin, given its Emax, does CC(C)C(CN)c1ccccc1 (stereo unspecified) occupy?
Output line: lo

Consider the additional compound presented here.
Input line: Band for the recorded Emax of NCCc1ccc(F)cc1 ?
Output line: mid

====

Reported EC50 is given for each of the following molecules.
- System name: Trace amine-associated receptor 1 (Homo sapiens, UniProt Q96RJ0)
- Method: Agonist activity at human trace amine associated receptor 1 expressed in RD-HGA16 CHO-K1 cells coexpressed with Galpha16 protein assessed as internal calcium mobilization by calcium 3 assay
- Type: functional, cell-based
Use µM as the unit, but write only the number.

Some solved cases for reference:
Input line: Assign EC50 to the following record: Cc1ccc(CCN)cc1
Output line: 4.38

Input line: Name the recorded EC50 of the item COc1cc(CCN)c(OC)cc1C in your answer.
Output line: 6.48

Input line: Indicate its recorded EC50; the molecule in question is NCCc1cccc(F)c1
Output line: 0.15

Input line: Please give the documented EC50 of NCCc1ccccc1Br
Output line: 0.057

Input line: Give reported EC50 value for COc1cc(F)c(CCN)c(F)c1
Output line: 1.4

Input line: Dear colleague, please send me the reported EC50 for CN(C)CCc1ccc(Cl)cc1 when you can.
Output line: 630

Input line: State its EC50: C[C@H](CN)c1ccccc1
Output line: 0.129

Input line: Supply recorded EC50 for CCc1ccc(CCN)cc1 here.
Output line: 9.1

Input line: Quote EC50 reported for CC(C)(N)Cc1ccccc1 please.
Output line: 5.47

Input line: Please supply the value of reported EC50 for the item CNCCc1cccc(Br)c1
Output line: 1.07

***
Input line: Provide EC50 value for the following molecule: CN(C)CCc1ccc(Br)cc1
Output line: 24.4

Input line: Quick one: give measured EC50 for NCCc1ccc(O)cc1
Output line: 0.731

Input line: Report EC50 for NCCc1ccc(Br)cc1
Output line: 1.54

Input line: Look up and report measured EC50 for this entry: CNCCc1ccc(Cl)cc1
Output line: 7.43

Input line: Tell us which EC50 value is on record for CNCCc1cccc(Cl)c1
Output line: 0.501

Input line: Identify the reported EC50 for the following entry. CN(C)CCc1ccccc1Br
Output line: 3.46

Input line: Please list EC50 recorded for the molecule NCC1(c2ccccc2)CC1
Output line: 5.05

====

- System name: Trace amine-associated receptor 1 (Homo sapiens)
- Sequence (Q96RJ0 whole entry): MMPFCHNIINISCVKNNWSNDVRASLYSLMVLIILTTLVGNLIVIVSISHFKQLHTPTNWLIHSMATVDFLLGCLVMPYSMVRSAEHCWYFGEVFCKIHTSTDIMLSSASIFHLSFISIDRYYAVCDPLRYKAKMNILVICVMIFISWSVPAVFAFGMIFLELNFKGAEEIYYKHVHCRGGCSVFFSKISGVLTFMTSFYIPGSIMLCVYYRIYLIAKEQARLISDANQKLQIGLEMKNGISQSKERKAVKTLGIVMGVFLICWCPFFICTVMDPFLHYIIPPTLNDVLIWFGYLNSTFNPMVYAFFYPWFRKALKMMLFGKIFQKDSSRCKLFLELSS
- Method: Agonist activity at human trace amine associated receptor 1 expressed in AV12-664 cells coexpressed with rat GalphaS protein assessed as cAMP accumulation
- Type: functional, cell-based
Value type: EC50 (nM)
// note: answer is a bare numeric in nM

Input line: Give a short answer stating reported EC50 for CNCCc1ccccc1 .
Output line: 250

More entries:
Input line: Identify measured EC50 corresponding to CN(C)CCc1ccccc1
Output line: 1490

====

- System name: Trace amine-associated receptor 1 (Homo sapiens)
- Sequence (Q96RJ0 whole entry): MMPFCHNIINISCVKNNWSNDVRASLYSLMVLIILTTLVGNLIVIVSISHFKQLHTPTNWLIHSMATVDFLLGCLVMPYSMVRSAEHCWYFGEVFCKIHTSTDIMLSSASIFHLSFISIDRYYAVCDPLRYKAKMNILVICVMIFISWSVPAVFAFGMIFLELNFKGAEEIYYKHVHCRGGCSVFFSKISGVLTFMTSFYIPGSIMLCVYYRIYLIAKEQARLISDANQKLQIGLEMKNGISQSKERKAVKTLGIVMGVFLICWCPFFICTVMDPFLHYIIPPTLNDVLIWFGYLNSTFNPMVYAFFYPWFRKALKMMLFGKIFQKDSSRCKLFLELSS
- Method: Agonist activity at human trace amine associated receptor 1 expressed in RD-HGA16 CHO-K1 cells coexpressed with Galpha16 protein assessed as internal calcium mobilization by calcium 3 assay
- Format: functional, cell-based
Below is a list of entries, each paired with its recorded EC50 value.

Reference set (3 entries):
Input line: Identify measured EC50 corresponding to NCCc1ccccc1F
Output line: 65 nM

Input line: Output measured EC50 for this item: COc1ccc(CCN)cc1
Output line: 5980 nM

Input line: Find the measured EC50 of CNCCc1cccc(F)c1 and report it.
Output line: 530 nM

New cases:
Input line: Identify the reported EC50 for the following entry. CC(C)(CN)c1ccccc1
Output line: 7880 nM

Input line: Tell me measured EC50 for CNCCc1ccc(F)cc1 please.
Output line: 1040 nM

Input line: For the molecule NCCc1ccccc1 , give its reported EC50.
Output line: 129 nM

Input line: Supply EC50 value. Item: CCc1cc(OC)c(CCN)cc1OC
Output line: 6410 nM

Input line: Please indicate EC50 recorded for NCCc1c(F)cccc1Cl
Output line: 312 nM

Input line: Identify measured EC50 associated with COc1cc(CCN)c(OC)cc1Br
Output line: 7190 nM

Input line: Indicate the recorded EC50 value for this molecule: NCCc1cccc(Cl)c1
Output line: 189 nM

Input line: Specify measured EC50 for NCCc1ccc([N+](=O)[O-])cc1 .
Output line: 167000 nM

Input line: Report measured EC50; entry is COc1ccc(OC)c(CCN)c1
Output line: 2010 nM

Input line: # return recorded EC50 for input Cc1ccccc1CCN
Output line: 355 nM
